targetDesc: recombinant CD73 (Homo sapiens, UniProt P21589)
Construct: purchased R&D Systems 5795-EN-010
Sequence (P21589 27-547 limits assumed): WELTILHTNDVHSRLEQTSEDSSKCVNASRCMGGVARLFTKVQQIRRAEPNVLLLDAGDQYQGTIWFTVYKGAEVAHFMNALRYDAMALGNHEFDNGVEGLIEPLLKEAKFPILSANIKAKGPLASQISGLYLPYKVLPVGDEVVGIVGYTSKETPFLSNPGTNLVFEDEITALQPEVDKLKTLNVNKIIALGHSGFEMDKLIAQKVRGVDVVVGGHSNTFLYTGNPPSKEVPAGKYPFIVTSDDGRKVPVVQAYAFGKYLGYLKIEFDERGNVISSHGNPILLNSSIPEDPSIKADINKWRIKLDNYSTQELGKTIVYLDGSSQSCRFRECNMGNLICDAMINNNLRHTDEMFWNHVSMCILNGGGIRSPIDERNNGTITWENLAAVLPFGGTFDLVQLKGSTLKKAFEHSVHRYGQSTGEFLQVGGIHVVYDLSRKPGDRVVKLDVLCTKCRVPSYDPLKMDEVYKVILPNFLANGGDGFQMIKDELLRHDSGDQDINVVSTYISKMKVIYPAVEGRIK
testProtocol: Assay 1: Inhibition of the CD73 Enzyme In Vitro
Type: biochemical
conditionSummary: soluble recombinant CD73 0.5 nM, AMP 50 μM, 30 minutes at room temperature, Malachite Green, absorbance at 630 nm; read-out: Assay 1 CD73 IC50
assayEndpoint: IC50 (nM)

Here's what some known entries look like.
compound: Nc1nc(Cl)nc2c1ncn2[C@@H]1O[C@H](CO[C@@](Cc2ccccc2)(C(=O)O)c2cocn2)[C@@H](O)[C@H]1O (single isomer, unassigned) [Example 36]
value: 6260

compound: COc1ncccc1-c1ccc(C[C@](OC[C@H]2O[C@@H](n3cnc4c(N)nc(Cl)nc43)[C@@H](F)[C@@H]2O)(C(=O)O)c2cscn2)cc1 (single isomer, unassigned) [Example 20]
value: 2750

compound: Nc1nc([C@@](Cc2ccccc2)(OC[C@H]2O[C@@H](n3cnc4c(N)nc(Cl)nc43)[C@H](O)[C@@H]2O)C(=O)O)cs1 (single isomer, unassigned) [Example 31]
value: 1970

compound: Nc1nc(Cl)nc2c1ncn2[C@@H]1O[C@H](CO[C@](Cc2ccc(-c3ccc(C(=O)O)cc3)cc2)(C(=O)O)c2cscn2)[C@@H](O)[C@@H]1F (single isomer, unassigned) [Example 10]
value: 227

compound: Nc1nc(Cl)nc2c1ncn2[C@@H]1O[C@H](COC(Cc2ccc(-c3ccccc3C(=O)O)cc2)(C(=O)O)c2cscn2)[C@@H](O)[C@@H]1F (mixture of isomers) [Example 13]
value: 218

P = CNS(=O)(=O)c1ccccc1-c1ccc(CC(OC[C@H]2O[C@@H](n3cnc4c(N)nc(Cl)nc43)[C@H](O)[C@@H]2O)(C(=O)O)c2cscn2)cc1 (mixture of isomers) [Example 38]
Q = Cc1nc([C@](Cc2ccc(-c3ccccc3)cc2)(OC[C@H]2O[C@@H](n3cnc4c(N)nc(Cl)nc43)[C@H](O)[C@@H]2O)C(=O)O)cs1 (single isomer, unassigned) [Example 28]
R = N#Cc1ccccc1-c1ccc(CC(OC[C@H]2O[C@@H](n3cnc4c(N)nc(Cl)nc43)[C@@H](F)[C@@H]2O)(C(=O)O)c2cscn2)cc1 (mixture of isomers) [Example 12]
S = Nc1nc(Cl)nc2c1ncn2[C@@H]1O[C@H](CO[C@](Cc2ccccc2)(C(=O)O)c2cocn2)[C@@H](O)[C@H]1O (single isomer, unassigned) [Example 35]
Input: Rank items: key IC50, increasing. Answer format: list of labels, ordered as asked.
Output: P, Q, S, R
